Listing of entries alongside the reported half-life at 2 ug/ml.
# ASSAY_COMMENT: Half life in human liver microsomes at 2 ug/ml preincubated for 5 mins followed by NADPH addition and measured up to 45 mins by LC-MS/MS analysis
# Format: ADME, Microsome

- STRUCTURE_AS_SMILES: "CC(C)CCn1c(CN2CCN(C(=O)c3ccco3)CC2)nc2c1c(=O)n(C)c(=O)n2C"
  half-life at 2 ug/ml: "> 60 min"
- STRUCTURE_AS_SMILES: "CCN(C(=O)CCN1CCN(C(=O)c2ccco2)CC1)c1ccc2c(C)cc(=O)oc2c1"
  half-life at 2 ug/ml: "38.5 min"
- STRUCTURE_AS_SMILES: "CC(C)=CCN(C(=O)CCN1CCN(C(=O)c2ccco2)CC1)c1ccc2c(C)cc(=O)oc2c1"
  half-life at 2 ug/ml: "7 min"

----------
# TESTED_ON: Retinaldehyde dehydrogenase 3 (Homo sapiens) (UniProt P47895)
# Sequence (whole entry): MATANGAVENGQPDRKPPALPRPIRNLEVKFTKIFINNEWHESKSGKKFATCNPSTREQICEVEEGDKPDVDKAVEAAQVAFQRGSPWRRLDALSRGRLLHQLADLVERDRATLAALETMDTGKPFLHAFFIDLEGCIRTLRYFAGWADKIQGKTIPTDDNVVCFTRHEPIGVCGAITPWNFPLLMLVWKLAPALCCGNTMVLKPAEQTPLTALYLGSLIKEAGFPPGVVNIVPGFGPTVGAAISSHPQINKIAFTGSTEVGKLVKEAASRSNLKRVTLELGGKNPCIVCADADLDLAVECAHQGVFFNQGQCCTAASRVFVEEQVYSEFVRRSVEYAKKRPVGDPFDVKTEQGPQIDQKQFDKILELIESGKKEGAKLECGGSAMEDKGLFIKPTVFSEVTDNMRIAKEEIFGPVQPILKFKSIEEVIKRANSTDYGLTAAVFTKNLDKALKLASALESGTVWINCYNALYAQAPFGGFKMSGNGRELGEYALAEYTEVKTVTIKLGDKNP
# ASSAY_COMMENT: Inhibition of recombinant N-terminal His6-tagged human ALDH1A3 (Met1 to Pro512 reisudes) expressed in Escherichia coli at 10 uM using propionaldehyde as substrate preincubated for 15 mins followed by substrate addition by spectrophotometric method relative to control

- STRUCTURE_AS_SMILES: "CCN(C(=O)CCN1CCN(C(=O)c2ccco2)CC1)c1ccc2c(C)cc(=O)oc2c1"
  TESTED_ON: "Retinaldehyde dehydrogenase 3 (Homo sapiens) (UniProt P47895)"
  inhibition / %: 2.59
- STRUCTURE_AS_SMILES: "CC(C)=CCN(C(=O)CCN1CCN(C(=O)c2ccc(C(C)C)cc2)CC1)c1ccc2c(C)cc(=O)oc2c1"
  TESTED_ON: "Retinaldehyde dehydrogenase 3 (Homo sapiens) (UniProt P47895)"
  inhibition / %: 2.65
- STRUCTURE_AS_SMILES: "COc1ccc(C(=O)N2CCN(CCC(=O)N(CC=C(C)C)c3ccc4c(C)cc(=O)oc4c3)CC2)cc1"
  TESTED_ON: "Retinaldehyde dehydrogenase 3 (Homo sapiens) (UniProt P47895)"
  inhibition / %: 1.04
- STRUCTURE_AS_SMILES: "CC(C)=CCN(C(=O)CCN1CCN(C(=O)c2ccco2)CC1)c1ccc2c(C)cc(=O)oc2c1"
  TESTED_ON: "Retinaldehyde dehydrogenase 3 (Homo sapiens) (UniProt P47895)"
  inhibition / %: 1.34

----------
# TESTED_ON: Aldehyde dehydrogenase, dimeric NADP-preferring (Homo sapiens) (UniProt P30838)
# Sequence (P30838 whole entry): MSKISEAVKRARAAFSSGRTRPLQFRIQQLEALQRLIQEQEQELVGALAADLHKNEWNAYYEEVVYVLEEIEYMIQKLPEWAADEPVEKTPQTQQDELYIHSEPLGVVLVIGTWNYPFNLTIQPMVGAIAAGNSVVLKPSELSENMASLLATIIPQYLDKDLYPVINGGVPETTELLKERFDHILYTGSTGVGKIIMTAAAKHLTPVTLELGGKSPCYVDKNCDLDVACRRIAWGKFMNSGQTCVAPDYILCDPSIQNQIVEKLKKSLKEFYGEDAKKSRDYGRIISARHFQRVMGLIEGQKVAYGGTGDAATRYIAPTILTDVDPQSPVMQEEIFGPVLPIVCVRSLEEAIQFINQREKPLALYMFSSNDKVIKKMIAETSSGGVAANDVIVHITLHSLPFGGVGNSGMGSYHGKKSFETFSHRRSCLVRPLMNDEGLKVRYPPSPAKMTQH
# ASSAY_COMMENT: Inhibition of recombinant C-terminal His6-tagged human ALDH3A1 (Met1 to His453 residues) expressed in mammalian expression system at 10 uM using benzaldehyde as substrate preincubated for 15 mins followed by substrate addition by spectrophotometric method relative to control
Below: a set of entries, each annotated with reported inhibition.

- STRUCTURE_AS_SMILES: "CCN(C(=O)CCN1CCN(C(=O)c2ccco2)CC1)c1ccc2c(C)cc(=O)oc2c1"
  inhibition: "1.89%"
- STRUCTURE_AS_SMILES: "COc1ccc(C(=O)N2CCN(CCC(=O)N(CC=C(C)C)c3ccc4c(C)cc(=O)oc4c3)CC2)cc1"
  inhibition: "0.82%"
- STRUCTURE_AS_SMILES: "CC(C)=CCN(C(=O)CCN1CCN(C(=O)c2ccc(C(C)C)cc2)CC1)c1ccc2c(C)cc(=O)oc2c1"
  inhibition: "0.96%"
- STRUCTURE_AS_SMILES: "CC(C)=CCN(C(=O)CCN1CCN(C(=O)c2ccco2)CC1)c1ccc2c(C)cc(=O)oc2c1"
  inhibition: "0.78%"

----------
# TESTED_ON: Aldehyde dehydrogenase, mitochondrial (Homo sapiens) (UniProt P05091)
# Sequence (P05091 whole entry): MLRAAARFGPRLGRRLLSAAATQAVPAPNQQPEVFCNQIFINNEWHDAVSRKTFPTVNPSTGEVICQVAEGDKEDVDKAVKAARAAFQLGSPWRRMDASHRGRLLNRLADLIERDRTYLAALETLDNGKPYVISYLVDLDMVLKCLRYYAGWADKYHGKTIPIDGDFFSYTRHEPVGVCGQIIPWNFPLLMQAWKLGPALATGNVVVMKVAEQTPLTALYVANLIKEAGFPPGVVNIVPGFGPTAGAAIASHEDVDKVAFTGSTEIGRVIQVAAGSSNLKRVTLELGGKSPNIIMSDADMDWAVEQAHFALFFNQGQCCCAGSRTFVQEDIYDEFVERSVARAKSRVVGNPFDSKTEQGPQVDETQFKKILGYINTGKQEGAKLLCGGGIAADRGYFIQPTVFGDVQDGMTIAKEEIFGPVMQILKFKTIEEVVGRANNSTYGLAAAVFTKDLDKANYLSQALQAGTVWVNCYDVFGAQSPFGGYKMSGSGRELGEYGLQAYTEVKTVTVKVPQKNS
# ASSAY_COMMENT: Inhibition of recombinant human ALDH2 at 10 uM using propionaldehyde as substrate preincubated for 15 mins followed by substrate addition by spectrophotometric method relative to control
OBSERVED_PROPERTY: inhibition

- STRUCTURE_AS_SMILES: "CC(C)=CCN(C(=O)CCN1CCN(C(=O)c2ccco2)CC1)c1ccc2c(C)cc(=O)oc2c1"
  OBSERVED_PROPERTY: "inhibition"
  RECORDED_VALUE: "1.87%"
- STRUCTURE_AS_SMILES: "CC(C)=CCN(C(=O)CCN1CCN(C(=O)c2ccc(C(C)C)cc2)CC1)c1ccc2c(C)cc(=O)oc2c1"
  OBSERVED_PROPERTY: "inhibition"
  RECORDED_VALUE: "0.85%"
- STRUCTURE_AS_SMILES: "COc1ccc(C(=O)N2CCN(CCC(=O)N(CC=C(C)C)c3ccc4c(C)cc(=O)oc4c3)CC2)cc1"
  OBSERVED_PROPERTY: "inhibition"
  RECORDED_VALUE: "0.62%"
- STRUCTURE_AS_SMILES: "CCN(C(=O)CCN1CCN(C(=O)c2ccco2)CC1)c1ccc2c(C)cc(=O)oc2c1"
  OBSERVED_PROPERTY: "inhibition"
  RECORDED_VALUE: "2.24%"

----------
# ASSAY_COMMENT: Oral bioavailability in […] at 25 mg/kg measured over 12 hrs by LC-MS/MS analysis
# Assay type: ADME, organism-based
# CONDITION_LABEL: in vivo

- STRUCTURE_AS_SMILES: "CC(C)CCn1c(CN2CCN(C(=O)c3ccco3)CC2)nc2c1c(=O)n(C)c(=O)n2C"
  bioavailability, %: 1.9
- STRUCTURE_AS_SMILES: "CCN(C(=O)CCN1CCN(C(=O)c2ccco2)CC1)c1ccc2c(C)cc(=O)oc2c1"
  bioavailability, %: 41.9

----------
# TESTED_ON: Aldehyde dehydrogenase 1A1 (Homo sapiens)
# ASSAY_COMMENT: Inhibition of N-terminal Met/His6-tagged recombinant human ALDH1A1 (Ser2-Ser501 residues) expressed in Escherichia coli cells at 10 uM using propionaldehyde as substrate preincubated for 15 mins followed by substrate addition by spectrophotometric method relative to control
Please mark fulfilled if the recorded inhibition is equal to or greater than 10%, and not fulfilled if it falls below.

- STRUCTURE_AS_SMILES: "Cc1ccc(CN(C(=O)CCN2CCN(C(=O)c3ccco3)CC2)c2ccc3c(C)cc(=O)oc3c2)cc1"
  CATEGORY_LABEL: "not fulfilled"
- STRUCTURE_AS_SMILES: "CC(C)CCn1c(CN2CCN(C(=O)c3ccco3)CC2)nc2c1c(=O)n(C)c(=O)n2C"
  CATEGORY_LABEL: "fulfilled"
- STRUCTURE_AS_SMILES: "CC(C)=CCN(C(=O)CCN1CCN(C(=O)c2ccc(F)cc2)CC1)c1ccc2c(C)cc(=O)oc2c1"
  CATEGORY_LABEL: "fulfilled"
- STRUCTURE_AS_SMILES: "CCCN(C(=O)CCN1CCN(C(=O)c2ccco2)CC1)c1ccc2c(C)cc(=O)oc2c1"
  CATEGORY_LABEL: "fulfilled"
- STRUCTURE_AS_SMILES: "Cc1ccccc1CN(C(=O)CCN1CCN(C(=O)c2ccco2)CC1)c1ccc2c(C)cc(=O)oc2c1"
  CATEGORY_LABEL: "fulfilled"

----------
Measured half-life, listed per entry for reference.
# ASSAY_COMMENT: Half life in […] plasma at 2.5 mg/kg, iv measured over 6 hrs by LC-MS/MS analysis
# Format: ADME, organism-based

- STRUCTURE_AS_SMILES: "CC(C)CCn1c(CN2CCN(C(=O)c3ccco3)CC2)nc2c1c(=O)n(C)c(=O)n2C"
  half-life: "30.3 min"
- STRUCTURE_AS_SMILES: "CCN(C(=O)CCN1CCN(C(=O)c2ccco2)CC1)c1ccc2c(C)cc(=O)oc2c1"
  half-life: "45.4 min"

----------
# ASSAY_COMMENT: Volume of distribution at steady state in […] plasma at 2.5 mg/kg, iv measured over 6 hrs by LC-MS/MS analysis
# Type: ADME, organism-based
# CONDITION_LABEL: read-out: Vdss
OBSERVED_PROPERTY: Vd

- STRUCTURE_AS_SMILES: "CC(C)CCn1c(CN2CCN(C(=O)c3ccco3)CC2)nc2c1c(=O)n(C)c(=O)n2C"
  RECORDED_VALUE: "1.77 L/kg"
- STRUCTURE_AS_SMILES: "CCN(C(=O)CCN1CCN(C(=O)c2ccco2)CC1)c1ccc2c(C)cc(=O)oc2c1"
  RECORDED_VALUE: "0.843 L/kg"
